Overview of reported pest or weed control at 200 ppm across a group of compounds:
# Test system: Heliothis virescens (Tobacco budworm)
# Method Summary: Heliothis virescens egg test on artificial diet
# Format: in vivo
# Condition Summary: 96 h, 200 ppm (concentration in well 18 ppm), eggs 0-24 h old on artificial diet, egg mortality, larval mortality, growth regulation after 4 days, read-out: control of Heliothis virescens

Enquiry: Specify measured pest or weed control at 200 ppm for O=C(NC1CS(=O)(=O)C1)c1ccc(C2=NOC(c3cc(Cl)cc(Cl)c3)(C(F)(F)F)C2Br)c2ccccc12 (stereo not shown) .
Return: ≥ 80%

Enquiry: Specify measured pest or weed control at 200 ppm for CC1(NC(=O)c2ccc(C3=NOC(c4cc(Cl)cc(Cl)c4)(C(F)(F)F)C3Br)c3ccccc23)CSC1 (stereo not shown) .
Return: ≥ 80%

Enquiry: Specify measured pest or weed control at 200 ppm for Cc1cc(C2=NOC(c3cc(Cl)cc(Cl)c3)(C(F)(F)F)C2O)ccc1C(=O)NC1CS(=O)(=O)C1 (stereo not shown) .
Return: ≥ 80%

Enquiry: Specify measured pest or weed control at 200 ppm for Cc1cc(C2=NCC(c3cc(Cl)cc(Cl)c3)(C(F)(F)F)C2)ccc1C(=O)NC1CSC1 (stereo not shown) .
Return: ≥ 80%
